Listing: Aqueous Solubility of selected compounds
Experiment: Aqueous solubility at ambient conditions
Type: physicochemical
Conditions: ambient conditions
MEASURED QUANTITY: Aqueous Solubility (mg/mL)

> print(dat)
                                   compound  reading.unit  reported.relation  assay.value
1  CC(=O)[O][Pt]([NH2])([Cl])([Cl])([NH]C1CCCCC1)[O]C(C)=O [Compound F, reference compound]         mg/mL                  <            1
2  Cc1ccccn1.N.[Cl-].[Cl-].[Pt+2] [reference compound]         mg/mL                  =          0.7
3  CC(=O)[O][Pt]([OH])([Cl])[O]C(C)=O.Cc1ccccn1.N [Compound E]         mg/mL                  =           15
4  CC(=O)[O][Pt]([Cl])([O]C(C)=O)[O]C(C)=O.Cc1ccccn1.N [Compound D]         mg/mL                  =           80
5  [NH2][Pt]1([NH2])[O]C(=O)C2(CCC2)C(=O)[O]1 [carboplatin, reference compound]         mg/mL                  =           14
6  CC(=O)[O][Pt]([OH])([Cl])[O]C(C)=O.Cc1ccccn1.N [Compound C]         mg/mL                  =           20

---

Test: Aqueous solubility at ambient conditions
Type: physicochemical
Details: ambient conditions
MEASURED QUANTITY: Ratio to Solubility of cisplatin

> print(dat)
                                   compound  reported.relation  assay.value
1  CC(=O)[O][Pt]([OH])([Cl])[O]C(C)=O.Cc1ccccn1.N [Compound E]                  =           15
2  Cc1ccccn1.N.[Cl-].[Cl-].[Pt+2] [reference compound]                  =          0.7
3  [NH2][Pt]1([NH2])[O]C(=O)C2(CCC2)C(=O)[O]1 [carboplatin, reference compound]                  =           14
4  CC(=O)[O][Pt]([NH2])([Cl])([Cl])([NH]C1CCCCC1)[O]C(C)=O [Compound F, reference compound]                  <            1
5  CC(=O)[O][Pt]([OH])([Cl])[O]C(C)=O.Cc1ccccn1.N [Compound C]                  =           20
6  Cc1cccc[n+]1[Pt-2]([NH3+])([OH])([OH])([Cl])[Cl]                  =            5

---

Test system: A2780
Assay: Cell proliferation IC50, human cancer cell lines in culture
Type: cell-based
Conditions: read-out: IC50 (50% decrease in cell proliferation); A2780 cell line
MEASURED QUANTITY: log10 of IC50 (log10 of the value in µM)

> print(dat)
                                   compound  subject.of.test  measured.quantity  assay.value
1  CC(=O)[O][Pt]([OH])([Cl])[O]C(C)=O.Cc1ccccn1.N [Compound E]            A2780      log10 of IC50         1.02
2  N.N.[Cl][Pt][Cl] [cisplatin, [PtCl2(NH3)2], reference compound]            A2780      log10 of IC50        -0.48
3  [NH2][Pt]1([NH2])[O]C(=O)C2(CCC2)C(=O)[O]1 [carboplatin, reference compound]            A2780      log10 of IC50         0.26
4  CC(=O)[O][Pt]([NH2])([Cl])([Cl])([NH]C1CCCCC1)[O]C(C)=O [Compound F, reference compound]            A2780      log10 of IC50        -0.40
5  Cc1ccccn1.N.[Cl-].[Cl-].[Pt+2] [reference compound]            A2780      log10 of IC50         0.40
6  Cc1cccc[n+]1[Pt-2]([NH3+])([OH])([OH])([Cl])[Cl]            A2780      log10 of IC50         0.65
7  CC(=O)[O][Pt]([Cl])([O]C(C)=O)[O]C(C)=O.Cc1ccccn1.N            A2780      log10 of IC50         1.67
8  CC(=O)[O][Pt]([OH])([Cl])[O]C(C)=O.Cc1ccccn1.N [Compound C]            A2780      log10 of IC50         0.93
